// data source = the supplement of paper PMC10567573

Kindly state protein stability index for each of the entries shown.
B1: RSPH3 (parent)
chain: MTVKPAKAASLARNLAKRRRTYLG

variants of: B1; assay: protein stability index of a GFP-peptide fusion (GPS, HEK-293T) (PSI 1-6); higher = more stable; details: c terminus: a fixed tail appended;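 also: lentivirally expressed fusions sorted by FACS into six bins by GFP to DsRed ratio, PSI derived from sequencing read proportions per bin multiplied by bin number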
One number for each entry.

Check out these entries, answers already filled in.
(Q) Give its protein stability index value. Item: S10F
(A) 2.35

(Q) Give its protein stability index value. Item: L11M
(A) 3.16

(Q) Give its protein stability index value. Item: L23E
(A) 4.43

(Q) Give its protein stability index value. Item: A12K
(A) 3.22

(Q) Give its protein stability index value. Item: L11A
(A) 4

(Q) Give its protein stability index value. Item: R19T
(A) 2.52

(Q) Give its protein stability index value. Item: A8C
(A) 2.52

(Q) Give its protein stability index value. Item: K7F
(A) 2.2

Count: 5. Required value per item: protein stability index.
1. S10G
2. L15K
3. T2P
4. R18L
5. A12C

(A)
1: 2.88; 2: 3.48; 3: 3.41; 4: 2.55; 5: 2.87
